Source: ChEMBL document CHEMBL1201862

test system: SN12C; assay: NCI tumour cell line growth inhibition, 48 h
Active and inactive are the calls of the source. Cut-off read from the data, not from the text of the source: active = GI50 up to about 1.1 µM and inactive = higher.
Consider the following compounds; for each one, report its GI50.

Problem: Request the reported GI50 associated with "O=S(=O)(Nc1nccs1)c1ccc([As](=O)(O)O)cc1"
Result: > 100 µM (inactive)

Problem: For COc1cccc(C2c3cc4c(cc3OC(N3CCCC3)C2C)OCO4)c1OC (centres undefined) , what is its reported GI50?
Result: 3.02 µM (inactive)

Problem: Give the measured GI50 of "CCOc1ccc(/N=C(/NC(=O)c2ccccc2)SC)cc1" .
Result: > 100 µM (inactive)

Problem: Sample "CCC(=O)N/N=C(\C=C\c1cccc(O)c1)c1sc(Nc2ccc(C)cc2[N+](=O)[O-])nc1C" — what was its GI50?
Result: > 100 µM (inactive)

Problem: Suppose we examine the compound "COc1ccccc1/C=C/c1nc2ccccc2o1" ; what GI50 value has been reported?
Result: > 10 µM (inactive)

Problem: Request the reported GI50 associated with "COC(=O)c1c2n(c3ccccc13)C[C@H]1OC(C)(C)O[C@@H]21"
Result: > 100 µM (inactive)

Problem: Record request: GI50 value, item "CCC(C)(C)/C(CC(O)(C(F)(F)F)C(F)(F)F)=N\O"
Result: > 100 µM (inactive)

Problem: What measured GI50 goes with O=C(NCC(=O)N1CCCC1C(=O)OC(=O)C1CCCN1C(=O)CNC(=O)OCc1ccccc1)OCc1ccccc1 (centres undefined) ?
Result: 31.8 µM (inactive)

Problem: // query GI50 value for entry "CN1C(=O)N/C(=C\c2ccc(S(=O)(=O)N/N=C/c3ccccc3)cc2)C1=O"
Result: 66.2 µM (inactive)

Problem: Item under review: "[N-]=[N+]=Nc1ccc(CCN2CCN(c3cccc(C(F)(F)F)c3)CC2)cc1I" . Reported GI50?
Result: 49 µM (inactive)

Problem: What value of GI50 has been reported for the following compound? "N#C/C(=C\c1ccc2[nH]ccc2c1)C(=O)c1ccc(O)c(O)c1"
Result: > 82.4 µM (inactive)

Problem: If you can, please state the reported GI50 value of "Cc1cc(Br)cc(C)c1NC(=O)C(=O)Nn1c(S)nc2ccccc2c1=O" .
Result: > 100 µM (inactive)

Problem: Which GI50 value is on record for "C/C(=N/NC(=O)c1ccccc1Nc1ccccc1C(=O)N/N=C(\C)c1ccc(C)cc1)c1ccc(C)cc1" ?
Result: > 100 µM (inactive)

Problem: If you can, please state the reported GI50 value of Cc1c(O)c(O)cc[n+]1C1OC(CO)C(O)C1O (centres undefined) .
Result: > 100 µM (inactive)

Problem: Quick one: GI50 for COc1ccc2c(c1)CC1C3(CCCCC23)CC[N+]1(C)C (centres undefined) ?
Result: 38.7 µM (inactive)

Problem: Report GI50 for "CC(=O)[C@]12OC(=O)C3=C1[C@H](CC[C@@H]3C)[C@@H](C)C[C@H]2C=C(C)C" please.
Result: 8.69 µM (inactive)

Problem: I'd like to know its GI50. The compound in question is Cc1cc2c(cc1Cl)SC(c1ccccc1O)NS2(=O)=O (centres undefined)
Result: 41 µM (inactive)

Problem: Query: GI50; subject: "C#CCN(C(=O)C(F)(F)F)c1ccc(C(=O)c2ccc(N(CC#C)C(=O)C(F)(F)F)cc2)cc1"
Result: 34.9 µM (inactive)

Problem: Need GI50, item "CC(C)=CCc1c(OC(=O)c2c(C)cc(O)cc2O)cc(CO)c(CO)c1O"
Result: 18.5 µM (inactive)

* * *

tested on: UACC-257; assay: NCI tumour cell line growth inhibition, 48 h
Activity calls are given as the source filed them. No stated cut-off is given here; in the data, active = GI50 up to about 1.1 µM and inactive = higher.
Result Type: GI50

Problem: // fetch UACC-257 GI50 for "CC(=O)[C@]12OC(=O)C3=C1[C@H](CC[C@@H]3C)[C@@H](C)C[C@H]2C=C(C)C"
Result: 9.75 µM (inactive)

Problem: State its GI50 on UACC-257: COC(=O)C1=C(C(=O)OC)C2OC1C1C2C2(C)C(C)=C(C)C1(C)[S+]2[O-] (stereo unspecified)
Result: 12.4 µM (inactive)

Problem: Give recorded GI50 with UACC-257 for the following compound: CC(C)NC(C)Cc1ccccc1 (stereo unspecified)
Result: > 100 µM (inactive)

Problem: For the record "O=[N+]([O-])c1ccccc1S(=O)(=O)N1CCCc2cc(Cl)ccc21" , what value of GI50 is listed for UACC-257?
Result: 12.6 µM (inactive)

Problem: Fill in the recorded GI50 for this compound, with UACC-257 as test system: "Nc1c2c(nc3ccccc13)-c1ccccc1CC2"
Result: 2.82 µM (inactive)

Problem: For the record "C/C(=N/NC(=O)c1ccccc1Nc1ccccc1C(=O)N/N=C(\C)c1ccc(C)cc1)c1ccc(C)cc1" , what value of GI50 is listed for UACC-257?
Result: > 100 µM (inactive)

* * *

test system: DU-145; assay: NCI tumour cell line growth inhibition, 48 h
Activity calls are given as the source filed them. No stated cut-off is given here; in the data, active = GI50 up to about 1.1 µM and inactive = higher.
One label from this list, please: true (active), false (inactive)

Problem: Outcome logged for "Cc1cn2c(/C=N/NC(=N)N)c(-c3cccc([N+](=O)[O-])c3)nc2s1" in this assay:
Result: false

Problem: Called result for COC(=O)C(COC(=O)/C=C/c1ccc(OC(C)=O)c(OC(C)=O)c1)OC(=O)/C=C/c1ccc(OC(C)=O)c(OC(C)=O)c1 (configuration not stated)
Result: false

Problem: What was the test verdict on "O=CN1CCN(C(=O)c2ccc(Cl)cc2)C1=S" ?
Result: false

Problem: How was "CC(C)(C)OC(=O)NCC(c1c[nH]c2cc(Br)ccc12)c1c[nH]c2cc(Br)ccc12" classified in this test?
Result: false

Problem: Fill in: this test's call for OCC(O)COCn1nncc1Cn1ncc2c(SCc3ccccc3)ncnc21 (configuration not stated) is ___
Result: false

Problem: Outcome? "Cn1ccc(C(=O)NCCN(CCNC(=O)c2ccn(C)c(=O)c2O)CCNC(=O)c2cccc(=O)n2O)c(O)c1=O"
Result: false

Problem: # lookup: test call for "Cn1cc(NC(=O)c2cc(NC(=O)c3cc(NC=O)cn3C)cn2C)cc1C(=O)NCCC(=N)N"
Result: false

Problem: Which outcome was assigned to "CC1=NN2C(=O)CC(=O)N=C2S1" in this test?
Result: false

Problem: Test call for this compound, please: O=C(O)c1cc(Cl)cc2c1NC1(N2)C(=O)Nc2ccccc21 (configuration not stated)
Result: false

Problem: For this compound, state the assay outcome: O=C1OCC(O)=C1C(c1ccc(Cl)cc1)c1cc2c(cc1O)OCO2 (configuration not stated)
Result: false

Problem: Any idea what this test logged for "O/N=C(\C=N\O)c1ccc2c(c1)Sc1ccccc1O2" ?
Result: false

Problem: Outcome logged for "CCOC(=O)c1ccc(OCc2nc3cc(C(F)(F)F)ccc3nc2-c2ccccc2)cc1" in this assay:
Result: false

Problem: # lookup: test call for CC1CCC(O)/C=C/C(=O)OC(C)C(O)/C=C/C(=O)O1 (configuration not stated)
Result: false

Problem: I'd appreciate the recorded outcome for "Cc1cc2nc3[nH]nc(N)c3nc2cc1C" from this test.
Result: false

Problem: GET /call?item= "COc1cc(C(=O)N(C)N(C)C)cc(OC)c1OC" returns the recorded outcome of this test.
Result: false

Problem: Lab log entry: "COc1ccccc1/C=C/c1nc2ccccc2o1" — outcome as called in the assay?
Result: false

Problem: Kindly provide the recorded test outcome for the following compound: "O=C1NC2(CCN(CCc3ccccc3)CC2)Oc2ccccc21"
Result: false

Problem: Please indicate how the test categorized CC1(C)SC2C(C(=O)O)N=C(Cc3ccccc3)N2C1C(=O)O (configuration not stated) .
Result: false

Problem: So what was the verdict on "CC1(C)N=c2c(ncn2-c2ccccc2)=C(C(N)=O)N1" in this test?
Result: false

Problem: So what was the verdict on CSc1ncc2c(n1)C(C#N)C1Sc3ccccc3N1C2=O (configuration not stated) in this test?
Result: false

Problem: Could you check what this test reported for c1ccc(N/N=C2\CC(c3ccccc3)Oc3ccccc32)cc1 (configuration not stated) ?
Result: false

Problem: Call for entry "c1cc(CNCCN2CCNCC2)ccn1" :
Result: false

Problem: Name the outcome recorded for "O=C(NCCC1([N+](=O)[O-])CCN(C(=O)c2ccccc2)CC1)c1ccccc1" in the assay.
Result: false

Problem: Give the logged outcome of this assay for the following compound: COc1ccc(C(SC2C(O)C(CO)OC2n2ccc(N)nc2=O)(c2ccccc2)c2ccc(OC)cc2)cc1 (configuration not stated)
Result: false

Problem: How was "N#C/C(=C\c1ccc2[nH]ccc2c1)C(=O)c1ccc(O)c(O)c1" classified in this test?
Result: false

Problem: Answer briefly: the call reported for "CNc1cccc(-c2cc(O)c3cc4c(cc3n2)OCO4)c1" in this assay.
Result: true

Problem: Dear all, I need the recorded test outcome for "C[C@@H](Cl)[C@H]1CCCN(Cc2ccc(Br)cc2)C1" , thank you.
Result: false
